All figures here come from ChEMBL document CHEMBL4371047.

# System: Human immunodeficiency virus 1
# ASSAY OVERVIEW: Resistance index, ratio of EC50 for HIV-1 harboring reverse transcriptase Y188L mutant to EC50 for wild type HIV-1 NL4-3
# Assay type: functional
Some compounds, each annotated with its measured Ratio EC50.

Input CCCN(C)c1nc(C(OC)c2c(Cl)cccc2Cl)c(C)c(=O)[nH]1 (stereo not drawn) . Output Ratio EC50: 30 - 39

Input COC(c1nc(SC(C)C)[nH]c(=O)c1C)c1c(F)cccc1Cl (stereo not drawn) . Output Ratio EC50: 144 - 173

The record that follows has no Ratio EC50 shown yet.
Input COC(c1nc(NC2CCCC2)[nH]c(=O)c1C)c1c(F)cccc1F (stereo not drawn) . Output Ratio EC50: 822 - 875

###

# ASSAY OVERVIEW: Cytotoxicity against human MT4 cells assessed as reduction in cell viability after 5 days by MTT assay
# Format: cell-based
ASSAY ENDPOINT: CC50 at 120 h

Recorded results for 5 compounds are shown here.
Input Cc1c(C(C)c2c(F)cccc2F)nc(SC2CCCC2)[nH]c1=O (stereo not given) . Output CC50 at 120 h: > 3000 nM

Input CO[C@H](c1nc(SC(C)C)[nH]c(=O)c1C)c1c(F)cccc1Cl . Output CC50 at 120 h: > 40500 nM

Input CCC(C)Sc1nc(C(CC)c2c(F)cccc2F)c(C)c(=O)[nH]1 (stereo not given) . Output CC50 at 120 h: > 3000 nM

Input CCC(c1nc(SC(C)C)[nH]c(=O)c1C)c1c(F)cccc1Cl (stereo not given) . Output CC50 at 120 h: > 3000 nM

Input O=C1Nc2ccc(Cl)cc2[C@@](C#CC2CC2)(C(F)(F)F)O1 [EFAVIRENZ] . Output CC50 at 120 h: > 3000 nM

New cases:
Input CCC(C)Sc1nc(C(C)c2c(F)cccc2Cl)c(C)c(=O)[nH]1 (stereo not given) . Output CC50 at 120 h: > 1500 nM

Input Cc1c(C(C)c2c(F)cccc2F)nc(SC(C)C)[nH]c1=O (stereo not given) . Output CC50 at 120 h: > 3000 nM

Input CCC(c1nc(SC2CCCC2)[nH]c(=O)c1C)c1c(F)cccc1Cl (stereo not given) . Output CC50 at 120 h: > 3000 nM

Input Cc1ccnc2c1NC(=O)c1cccnc1N2C1CC1 [NEVIRAPINE] . Output CC50 at 120 h: > 7000 nM

Input Cc1c(C(C)c2c(F)cccc2Cl)nc(SC(C)C)[nH]c1=O (stereo not given) . Output CC50 at 120 h: > 15000 nM

###

# Tested on: Human immunodeficiency virus type 1 reverse transcriptase (Human immunodeficiency virus 1), Q72547 [L100I]
ASSAY ENDPOINT: ID50 (nM)
Give the number; nM is assumed, so skip it.

Recorded results for 2 molecules are shown here.
Input CO[C@@H](c1nc(SC(C)C)[nH]c(=O)c1C)c1c(F)cccc1Cl . Output ID50: 400

Input Cc1c(C(C)c2c(F)cccc2F)nc(NC2CCCC2)[nH]c1=O (centres undefined) . Output ID50: 500

New cases:
Input CCC(c1nc(SC(C)C)[nH]c(=O)c1C)c1c(F)cccc1Cl (centres undefined) . Output ID50: 120

Input Cc1c(C(C)c2c(F)cccc2Cl)nc(SC2CCCC2)[nH]c1=O (centres undefined) . Output ID50: 120
